Where do these numbers come from? They come from patent US9586931B2.

target-of-assay: recombinant human GST-Syk (Homo sapiens)
Construct: purchased Carna Biosciences 08-176
test-method-notes: Homogeneous Time-Resolved Fluorescence (HTRF) assay for the recombinant human Syk enzyme
Assay type: biochemical
condition: recombinant human GST-Syk 5 pM, ATP 25 μM, 10-dose titration 10 μM to 0.508 nM; read-out: rhSYK Activity IC50
pIC50: −log10 of the molar value.
Note to self: values exactly at 7 are Y. So pIC50 at or above 7 is Y, below is N.

>>> print(df.to_string())
                                   molecule                           target_of_assay  category_label
0  Cc1cc(Nc2nccc(C(F)F)n2)cc(-c2cn(CC(C)(O)C(C)(C)O)nn2)c1 (stereo not shown) [Example 21.25]  recombinant human GST-Syk (Homo sapiens)               Y
1  Cc1cc(Nc2ncc(F)c(C(F)F)n2)cc(-c2cn(CC3OC(=O)NC3C)nn2)c1 (single isomer, unassigned) [Example 7.37]  recombinant human GST-Syk (Homo sapiens)               Y
2  Cc1cc(Nc2cc(C(F)(F)F)ccn2)nc(-c2cn(C(C)C(O)CC#N)nn2)c1 (stereo not shown) [Example 4.2]  recombinant human GST-Syk (Homo sapiens)               Y
3  Cc1cc(Nc2nccc(C(F)(F)F)n2)cc(-n2cc(CC(O)CO)nn2)c1 (stereo not shown)  recombinant human GST-Syk (Homo sapiens)               Y
4  Cc1cc(Nc2cc(C(F)F)ccn2)nc(-c2cn(CC(C)(O)C(C)(C)O)nn2)c1 (stereo not shown) [Example 21.36]  recombinant human GST-Syk (Homo sapiens)               Y
5  Cc1cc(Nc2cc(C(F)(F)F)ccn2)nc(-c2cn([C@H](C)C(=O)O)nn2)c1  recombinant human GST-Syk (Homo sapiens)               N
6  Cc1cc(Nc2cc(C(F)(F)F)ccn2)nc(-c2cn(C(C)C(=O)NC(C)c3cnn(-c4ccccc4F)c3)nn2)c1 (stereo not shown)  recombinant human GST-Syk (Homo sapiens)               N
